measurement-notes: Microsomal metabolic stability assay
Assay type: in vitro ADME
recorded-conditions: pH 7.4; dog liver microsomes, 0.5 mg/mL protein, 1 μM compound; read-out: Dog LM Clint
property-measured: log10 of microsomal CLint at 1 μM (log10 of the value in µL/min/mg)
The figures below represent log10 of microsomal CLint at 1 μM, where microsomal CLint at 1 μM is stated in µL/min/mg.

Endpoint output: log10 of microsomal CLint at 1 μM of CNC(=O)c1cnc(NC(=O)C2CC2)cc1Nc1csc2ccn(C)c(=O)c12 . Value?
0.93

Query [2H]C([2H])([2H])NC(=O)c1cnc(Nc2ccn(C)n2)cc1Nc1ccc2cnn(CC)c2c1OC next
1.49

Same question, [2H]C([2H])([2H])NC(=O)c1cnc(Nc2cc(F)c(F)cn2)cc1Nc1cn(C)c2c(F)cn(C)c(=O)c12 this time
1.30

Same question for [2H]C([2H])([2H])NC(=O)c1cnc(Nc2ccncn2)cc1Nc1ccc2cnn(C([2H])([2H])[2H])c2c1OC please.
1.72

Subsequent entry: [2H]C([2H])([2H])NC(=O)c1cnc(NC(=O)C2CC2)cc1Nc1nn(CC)c2ccn(CC(F)(F)F)c(=O)c12
1.02

Again, but for [2H]C([2H])([2H])NC(=O)c1cnc2nc1Nc1cc(cc(-c3ncn(C)n3)c1OC)COCc1cc(cc(F)c1F)N2
0.93

Check [2H]C([2H])([2H])NC(=O)c1cnc(Nc2ccn(C)n2)cc1Nc1cc(F)c2cnn(CC)c2c1OC too.
1.67

What about this molecule? [2H]C([2H])([2H])NC(=O)c1cnc(NC(=O)C2CC2)cc1Nc1cnn2ccn(CC(F)(F)F)c(=O)c12
0.94

Proceed to [2H]C([2H])([2H])NC(=O)c1cnc(Nc2cccc(C#N)c2)nc1Nc1cccc(-c2ncn(C)n2)c1OC
1.85

Another molecule to look at: CCn1ccc2c(c(Nc3cc(Nc4ncc(F)cc4F)ncc3C(=O)NC)cn2C)c1=O
1.57

Continue with [2H]C([2H])([2H])NC(=O)c1cnc(NC(=O)C2CC2)cc1Nc1cn(C)c2ccn(C(C)C(F)(F)F)c(=O)c12 (stereo not drawn)
1.17

Would you kindly repeat that for CNC(=O)c1cnc(NC(=O)C2CC2)cc1Nc1cn(C)c2c(F)cn(C)c(=O)c12 ?
0.81

Query [2H]C([2H])([2H])NC(=O)c1cnc(Nc2ccncn2)cc1Nc1cc(F)c2cnn(CC)c2c1OC next
1.62

Input COC(=O)c1cnc(NC(=O)C2CC2)cc1Nc1ncn2ccn(CC(F)(F)F)c(=O)c12
1.40
